Test: bioavailability of dextromethorphan after nasal, oral and intravenous administration (plasma levels, spectrofluorophotometric)
Type: in vivo, female beagle dogs
Details: dog, plasma, iv, 15 mg, dog #2, 1 min, HBr salt 15 mg/dog
readout: concentration at 1 min (ng/mL)
Please give a number only; it is taken to be in ng/mL.

What does the record list as concentration at 1 min for COc1ccc2c(c1)[C@]13CCCC[C@@H]1[C@H](C2)N(C)CC3 ? 1590

---

Assay: bioavailability of dextromethorphan after nasal, oral and intravenous administration (plasma levels, spectrofluorophotometric)
Assay type: in vivo, female beagle dogs
Conditions: dog, plasma, iv, 15 mg, dog #1, 20 min, HBr salt 15 mg/dog
readout: concentration at 20 min (µg/mL)
Please give a number only; it is taken to be in µg/mL.

What does the record list as concentration at 20 min for COc1ccc2c(c1)[C@]13CCCC[C@@H]1[C@H](C2)N(C)CC3 ? 0.331

---

Assay: bioavailability of dextromethorphan after nasal, oral and intravenous administration (plasma levels, spectrofluorophotometric)
Format: in vivo, female beagle dogs
Settings: dog, plasma, iv, 15 mg, dog #2, 120 min, HBr salt 15 mg/dog
readout: concentration at 2 h (ng/mL)
Please give a number only; it is taken to be in ng/mL.

What does the record list as concentration at 2 h for COc1ccc2c(c1)[C@]13CCCC[C@@H]1[C@H](C2)N(C)CC3 ? 141

---

Experiment: bioavailability of dextromethorphan after nasal, oral and intravenous administration (plasma levels, spectrofluorophotometric)
Assay type: in vivo, female beagle dogs
Settings: dog, plasma, 15 mg, nasal, dog #3, 12 min, HBr salt 15 mg/dog
Experimental: The following study was undertaken to determine the bioavailability of dextromethorphan from nasal solution in comparison with the bioavailability of the drug when administered orally and intravenously. Three female beagle dogs weighing about 10 kg each were used for the study without fasting. […] After nasal, oral, and intravenous administration, blood was sampled from the cubital vein periodically. The blood sample, was centrifuged and 2.5 ml of plasma were analyzed. […]
readout: concentration at 0.2 h (ng/mL)
Please give a number only; it is taken to be in ng/mL.

What does the record list as concentration at 0.2 h for COc1ccc2c(c1)[C@]13CCCC[C@@H]1[C@H](C2)N(C)CC3 ? 385

---

Test: bioavailability of dextromethorphan after nasal, oral and intravenous administration (plasma levels, spectrofluorophotometric)
Type: in vivo, female beagle dogs
Conditions: dog, plasma, iv, 15 mg, dog #2, 20 min, HBr salt 15 mg/dog
readout: concentration at 20 min (ng/mL)
Please give a number only; it is taken to be in ng/mL.

What does the record list as concentration at 20 min for COc1ccc2c(c1)[C@]13CCCC[C@@H]1[C@H](C2)N(C)CC3 ? 229
